Values from paper PMC9139979

Measurement Description: Caco-2 cell permeability assay (CacoReady)
Type: in vitro ADME
Recorded Conditions: human, apical 200 μM, HBSS pH 6.5, 1% DMSO
Measurement Label: Papp A→B at 200 μM

Qu. Supply recorded Papp A→B at 200 μM for CCC(CC)CNC(=O)Cn1cccc(NC(=O)[C@H](CC/C=C/C(=O)OC)NC(=O)c2cncn2C)c1=O [ZED1227] here.
Ans. < 1 ×10⁻⁶ cm/s

---

Target Desc: hFXIII-A2 (Homo sapiens)
Sequence (P00488 39-732 limits assumed): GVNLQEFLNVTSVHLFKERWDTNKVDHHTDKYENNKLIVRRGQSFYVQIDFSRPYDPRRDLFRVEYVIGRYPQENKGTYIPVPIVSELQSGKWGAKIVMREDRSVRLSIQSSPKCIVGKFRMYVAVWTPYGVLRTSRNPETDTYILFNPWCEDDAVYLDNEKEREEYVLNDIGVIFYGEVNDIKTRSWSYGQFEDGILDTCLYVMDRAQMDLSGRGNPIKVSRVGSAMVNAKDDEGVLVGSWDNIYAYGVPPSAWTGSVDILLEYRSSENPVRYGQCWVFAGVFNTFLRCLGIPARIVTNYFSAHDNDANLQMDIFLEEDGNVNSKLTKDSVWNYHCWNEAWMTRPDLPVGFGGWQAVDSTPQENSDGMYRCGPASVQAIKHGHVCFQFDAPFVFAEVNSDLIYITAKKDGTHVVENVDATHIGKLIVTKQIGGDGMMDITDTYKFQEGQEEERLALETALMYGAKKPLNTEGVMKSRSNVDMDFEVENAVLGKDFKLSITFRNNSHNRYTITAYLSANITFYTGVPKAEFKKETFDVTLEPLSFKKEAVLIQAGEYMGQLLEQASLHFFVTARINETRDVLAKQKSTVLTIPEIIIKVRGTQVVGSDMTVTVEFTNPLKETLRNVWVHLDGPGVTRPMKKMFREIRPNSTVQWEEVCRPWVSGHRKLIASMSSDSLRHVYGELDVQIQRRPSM
Measurement Description: Fluorescent transamidation assay (DCC-assay), hFXIII-A2
Recorded Conditions: recombinant, thrombin activated, transamidation assay; read-out: App. IC50 hFXIII-A2
pIC50: −log10 of the molar value.
Measurement Label: pIC50

Qu. Supply recorded pIC50 for "CCC(CC)CNC(=O)Cn1cccc(NC(=O)[C@H](CC/C=C/C(=O)OC)NC(=O)c2cncn2C)c1=O" here.
Ans. < 4.30
